B1: Transcription elongation factor A N-terminal and central domain-containing protein, residues 30 to 77; numbered along this chain, Q8N8B7 (parent)
chain: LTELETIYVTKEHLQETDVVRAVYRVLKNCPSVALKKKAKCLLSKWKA

Variants of: B1
measurement.notes: abundance fitness (aPCA) (normalised: wild type 0, dead -1); higher = more abundant; growth selection in yeast, the domain comes from the species named
applied.conditions: Homo sapiens
Quick reference: abundance fitness of the listed items.

> print(dat)
   sequence.change       readout.kind  test.value
1             A39K  abundance fitness      -0.883

q: For the variant S32K , report abundance fitness.
a: -0.155

q: For the variant L14Y , report abundance fitness.
a: -0.124

q: For the variant L43E , report abundance fitness.
a: -0.915

q: For the variant K38C , report abundance fitness.
a: 0.099

q: For the variant R25D , report abundance fitness.
a: -0.443
